assayedTarget: mouse PDGF-β receptor tyrosine kinase (Mus musculus, UniProt P05622)
Construct: amplify a fragment of DNA that codes for the intracellular tyrosine kinase domain; made in house; host or cells: SF9 insect cells (baculovirus)
Sequence (P05622 599-961 limits assumed): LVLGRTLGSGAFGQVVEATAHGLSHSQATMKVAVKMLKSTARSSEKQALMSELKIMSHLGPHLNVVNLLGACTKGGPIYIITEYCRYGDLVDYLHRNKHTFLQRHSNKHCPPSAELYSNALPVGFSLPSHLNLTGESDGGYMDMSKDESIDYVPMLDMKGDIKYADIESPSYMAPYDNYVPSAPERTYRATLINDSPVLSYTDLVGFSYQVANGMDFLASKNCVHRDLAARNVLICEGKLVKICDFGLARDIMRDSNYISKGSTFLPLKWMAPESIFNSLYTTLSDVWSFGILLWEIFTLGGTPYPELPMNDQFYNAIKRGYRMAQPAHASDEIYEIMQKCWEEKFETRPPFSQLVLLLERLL
method: PDGF receptor tyrosine kinase assay (32P incorporation into glutamate-tyrosine co-polymer)
Format: biochemical
conditionSet: read-out: PDGFr-TK % Inhibition at 50 µM
Method: Full length cDNAs for the mouse PDGF-β and human FGF-1 (flg) receptor tyrosine kinases were obtained from J. Escobedo and prepared as described in J. Biol. Chem., 262:1482-1487 […], and PCR primers were designed to amplify a fragment of DNA that codes for the intracellular tyrosine kinase domain. […] Nonspecific activity was defined as radioactivity retained on the filters following incubation of samples with buffer alone (no enzyme). […]
Record form. Attribute: inhibition at 50 µM. Fill in for each entry.
Quick reminder: number only, in %, skip the unit.

## Task So what's the measured inhibition at 50 µM for this one? `CCN(CC)CCCCNc1ncc2cc(-c3c(Cl)cccc3Cl)c(=NC(C)=O)n(C)c2n1`
## Result 32

## Task So what's the measured inhibition at 50 µM for this one? `CCn1c(=N)c(-c2ccc3ccccc3c2)cc2cnc(Nc3ccccc3)nc21`
## Result 44

## Task So what's the measured inhibition at 50 µM for this one? `CCOCCOc1ncc2cc(-c3c(Cl)cccc3Cl)c(=N)n(C)c2n1`
## Result 13

## Task So what's the measured inhibition at 50 µM for this one? `CSc1ncc2cc(-c3c(Cl)cccc3Cl)c(=O)n(C)c2n1`
## Result 33
